- experimentDescription: Kinetic solubility of the compound at pH 7.4
- Type: physicochemical
- conditionParameters: buffer, read-out: Kinetic_solubility
endpointName: solubility kinetic (µM)
Report the value in µM with no unit label.

Please give the documented solubility kinetic of Cc1ccc(CNc2nc(=O)c3cc(C(F)(F)F)cc([N+](=O)[O-])c3s2)o1 1.82

Input C[C@H]1COC2(CCN(c3nc(=O)c4cc(C(F)(F)F)cc([N+](=O)[O-])c4s3)CC2)O1 [BTZ-043] , output reported solubility kinetic. 6.8

Please report the measured solubility kinetic for CN(c1nc(=O)c2cc(C(F)(F)F)cc([N+](=O)[O-])c2s1)[C@H]1CCN(Cc2ccccc2)C1 2.97

Please supply the value of reported solubility kinetic for the item O=c1nc(N2CCC(F)(F)CC2)sc2c([N+](=O)[O-])cc(C(F)(F)F)cc12 8.1

====

Please provide measured selectivity ratio for the entries that follow.
- experimentDescription: Therapeutic index, ratio of GI50 for human HUVEC cells to MIC for Mycobacterium smegmatis 700084
- Format: cell-based
- conditionParameters: read-out: TI

Give the value of selectivity ratio reported for the following: O=c1nc(N2CCC(c3ccccc3)CC2)sc2c([N+](=O)[O-])cc(C(F)(F)F)cc12 > 12500

Note down selectivity ratio recorded for CN(C)c1ccc(CN(C)c2nc(=O)c3cc(C(F)(F)F)cc([N+](=O)[O-])c3s2)cc1 > 50000

Supply selectivity ratio value. Item: C[C@H]1COC2(CCN(c3nc(=O)c4cc(C(F)(F)F)cc([N+](=O)[O-])c4s3)CC2)O1 1190

====

- System: Plasma
- experimentDescription: Metabolic stability in mouse plasma; further: time not given here
- Format: ADME, cell-free
endpointName: Stability (%)
Record the value in %, omitting the unit from your answer.

Determine from records and report Stability for CN(c1nc(=O)c2cc(C(F)(F)F)cc([N+](=O)[O-])c2s1)[C@H]1CCN(Cc2ccccc2)C1 114

Output Stability of O=c1nc(N2CCC(c3ccccc3)CC2)sc2c([N+](=O)[O-])cc(C(F)(F)F)cc12 71

Fill in Stability for record O=c1nc(NCc2ccc3c(c2)OCCO3)sc2c([N+](=O)[O-])cc(C(F)(F)F)cc12 114

Name the recorded Stability of the item C[C@H]1COC2(CCN(c3nc(=O)c4cc(C(F)(F)F)cc([N+](=O)[O-])c4s3)CC2)O1 in your answer. 97

# return recorded Stability for input O=c1nc(N2CCN(c3nccs3)CC2)sc2c([N+](=O)[O-])cc(C(F)(F)F)cc12 111

Retrieve Stability measured for Cc1ccc(CNc2nc(=O)c3cc(C(F)(F)F)cc([N+](=O)[O-])c3s2)n1C and print it. 93

Give me measured Stability, please, for this molecule: CN(C)c1ccc(CN(C)c2nc(=O)c3cc(C(F)(F)F)cc([N+](=O)[O-])c3s2)cc1 104

Indicate the recorded Stability value for this molecule: COC(=O)[C@@H]1OC2(CCN(c3nc(=O)c4cc(C(F)(F)F)cc([N+](=O)[O-])c4s3)CC2)O[C@H]1c1ccccc1 88

Look up and state reported Stability for CN(C(=O)CN1CCN(c2nc(=O)c3cc(C(F)(F)F)cc([N+](=O)[O-])c3s2)CC1)c1ccccc1 115

Identify Stability associated with the molecule O=c1nc(N2CCC(F)(F)CC2)sc2c([N+](=O)[O-])cc(C(F)(F)F)cc12 92

Give a short answer stating reported Stability for COC(=O)C1CN(c2nc(=O)c3cc(C(F)(F)F)cc([N+](=O)[O-])c3s2)CCC12OC[C@H](C)O2 (some centres not stated) . 56

Give me measured Stability, please, for this molecule: CCCOCC1COC2(CCN(c3nc(=O)c4cc(C(F)(F)F)cc([N+](=O)[O-])c4s3)CC2)O1 (configuration not stated) 103
